assay: Chemical stability of the compound in 1% HCl assessed as compound remaining at 30 min by HPLC analysis; type: physicochemical; conditions: read-out: Stability
Quantity Name: remaining at 0.5 h (%)
Enter your answer as a number in %; do not include the unit.

[
  {
    "Compound": "CCc1cc(=O)c2ccc3c(c2o1)[C@@H](OC(=O)C12CCC(C)(C(=O)O1)C2(C)C)[C@@H](OC(=O)C12CCC(C)(C(=O)O1)C2(C)C)C(C)(C)O3 (some centres not stated)",
    "Quantity Name": "remaining at 0.5 h",
    "Measured Result": 91
  }
]

Exercise: Name the reported remaining at 0.5 h value associated with the compound Cc1cc(=O)oc2c3c(ccc12)OC(C)(C)[C@H](OC(=O)[C@@]12CC[C@@](C)(C(=O)O1)C2(C)C)[C@@H]3OC(=O)[C@@]12CC[C@@](C)(C(=O)O1)C2(C)C
Key: 64
